STUDY_TARGET: CFTR channel (Homo sapiens, UniProt P13569)
Sequence (P13569 whole entry): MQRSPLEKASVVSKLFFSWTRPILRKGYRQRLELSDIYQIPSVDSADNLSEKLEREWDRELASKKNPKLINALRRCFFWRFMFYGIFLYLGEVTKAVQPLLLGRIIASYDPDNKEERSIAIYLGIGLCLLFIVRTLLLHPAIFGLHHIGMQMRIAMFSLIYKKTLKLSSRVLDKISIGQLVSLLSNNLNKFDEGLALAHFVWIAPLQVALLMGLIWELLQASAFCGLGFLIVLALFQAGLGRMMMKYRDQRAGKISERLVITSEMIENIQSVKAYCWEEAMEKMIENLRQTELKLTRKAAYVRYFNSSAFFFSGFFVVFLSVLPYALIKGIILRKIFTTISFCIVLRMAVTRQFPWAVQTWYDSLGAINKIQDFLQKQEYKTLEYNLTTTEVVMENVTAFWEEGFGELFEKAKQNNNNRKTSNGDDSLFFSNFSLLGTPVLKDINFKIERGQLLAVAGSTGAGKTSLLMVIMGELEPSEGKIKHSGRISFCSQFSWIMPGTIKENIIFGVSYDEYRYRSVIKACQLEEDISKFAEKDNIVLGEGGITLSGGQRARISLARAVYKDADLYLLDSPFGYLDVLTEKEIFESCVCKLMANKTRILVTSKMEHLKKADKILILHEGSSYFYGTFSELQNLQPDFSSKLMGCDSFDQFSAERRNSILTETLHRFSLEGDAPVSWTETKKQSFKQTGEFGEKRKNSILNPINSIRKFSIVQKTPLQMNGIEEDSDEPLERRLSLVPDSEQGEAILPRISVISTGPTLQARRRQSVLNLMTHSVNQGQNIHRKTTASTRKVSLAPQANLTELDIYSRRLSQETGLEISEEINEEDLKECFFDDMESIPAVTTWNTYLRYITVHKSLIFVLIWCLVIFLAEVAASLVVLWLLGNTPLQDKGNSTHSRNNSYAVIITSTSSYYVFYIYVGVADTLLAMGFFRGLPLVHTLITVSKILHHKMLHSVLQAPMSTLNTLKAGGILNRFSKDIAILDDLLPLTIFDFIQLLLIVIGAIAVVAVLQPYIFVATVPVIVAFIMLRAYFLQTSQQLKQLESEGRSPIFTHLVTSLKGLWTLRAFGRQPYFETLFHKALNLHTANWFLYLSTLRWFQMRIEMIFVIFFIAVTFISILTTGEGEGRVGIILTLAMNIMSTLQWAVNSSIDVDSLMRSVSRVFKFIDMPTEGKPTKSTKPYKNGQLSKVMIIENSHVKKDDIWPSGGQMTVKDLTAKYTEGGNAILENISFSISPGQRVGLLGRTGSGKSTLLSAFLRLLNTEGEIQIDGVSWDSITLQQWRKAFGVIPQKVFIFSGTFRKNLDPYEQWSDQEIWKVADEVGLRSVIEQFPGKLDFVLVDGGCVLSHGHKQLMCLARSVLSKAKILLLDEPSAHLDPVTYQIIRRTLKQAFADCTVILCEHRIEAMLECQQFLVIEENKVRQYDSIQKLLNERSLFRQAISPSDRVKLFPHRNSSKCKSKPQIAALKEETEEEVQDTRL
EXPERIMENTAL_PROTOCOL: Efflux of radioactive iodide in recombinant CHO (CFTR+) cells
Assay type: cell-based
Set-up: expressed in transfected cells; host or cells: CHO-K1 cells, vector pNUT
REPORTED_CONDITIONS: efflux of iodide, recombinant CHO (CFTR+) cell; MPB and phenanthrene 500 μM; read-out: % activation relative to control
METRIC: activation at 500 µM (%)

{"COMPOUND": "Nc1cc2cccc[n+]2c2cc(Cl)ccc12 [MPB-03]", "STUDY_TARGET": "CFTR channel (Homo sapiens, UniProt P13569)", "activation at 500 µM [%]": 18}

I. Oc1cc2cccc[n+]2c2cc(Cl)ccc12 [MPB-08]
II. Nc1cc2cccc[n+]2c2cccc(Cl)c12 [MPB-04]
I would appreciate it if you could say which entry, I or II , has the lower activation at 500 µM value. // return label of chosen record
II
(II: 11%, I: 22%)

a. Oc1cc2cccc[n+]2c2ccccc12 [MPB-05, 6-Hydroxybenzo[c]quinolizinium Chloride]
b. Oc1cc2cccc[n+]2c2c(Cl)cccc12.[Cl-] [MPB-07]
When a and b are compared, which has the higher number for activation at 500 µM? Your answer should be the label attached to the chosen record.
b
(b: 110%, a: 20%)
